Exercise: for every item that follows, state its recorded pIC50.
TARGET_OF_ASSAY: Nonstructural protein 3 (Zika virus)
Sequence (A0A024AXB9 whole entry): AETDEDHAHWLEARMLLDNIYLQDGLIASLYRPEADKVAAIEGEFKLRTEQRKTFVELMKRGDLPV
TEST_DESCRIPTION: Functional biochemical assay to identify treatments for viral infectious disease that targets Zika NS2B-NS3 protease. Utilizing a direct enzyme activity measurement method, reading the fluorescence intensity is used to characterize the relative potency of inhibitors as IC50.
Parameters: species or system PRVABC59
pIC50: −log10 of the molar value.

Quick one: pIC50 of NS(=O)(=O)c1cccc(-c2ccc(S(=O)(=O)Nc3ccc(Cl)cc3C(=O)O)cc2)c1 ?
< 4.00

Quick one: pIC50 of O=C(O)c1c(NS(=O)(=O)c2ccc(Oc3ccccc3Cl)cc2)ccc(Cl)c1F ?
4.27

Quick one: pIC50 of O=C1Cc2c(cccc2C(=O)NC2CCN(c3nccs3)CC2)N1 ?
< 4.60

Quick one: pIC50 of c1cc(-c2cc(CN3CCC(c4cscn4)CC3)n[nH]2)ccn1 ?
< 4.00

Quick one: pIC50 of COc1ncccc1S(=O)(=O)N[C@H](C(=O)Nc1cccc(CN)c1)c1ccc(OCc2ccccc2)cc1 ?
< 4.00

Quick one: pIC50 of O=C(Nc1cc(Cl)cc(C(=O)NCc2n[nH]c3c2CNCC3)c1)OCc1ccccc1 ?
< 4.00

Quick one: pIC50 of NC(=O)c1cccc(NC(=O)c2cc(Cl)cc(NC(=O)OCc3ccccc3)c2)c1 ?
< 4.00

Quick one: pIC50 of O=C(Nc1cc(Cl)cc(C(=O)Nc2ccc(CCN3CCOCC3)cc2)c1)OCc1ccccc1 ?
< 4.00

Quick one: pIC50 of O=C(Nc1ccc2c(c1)CNC2)N1CCC[C@](O)(c2ccccc2)C1 ?
< 4.60

Quick one: pIC50 of CS(=O)(=O)c1cc2c(cc1NC(=O)c1cc(F)cc3[nH]ncc13)CNC2 ?
6.70

Quick one: pIC50 of CCc1c(C(=O)Nc2cccc(CN)c2)c2cc(Cl)ccc2n1C ?
< 4.00

Quick one: pIC50 of O=C(Nc1ccc2c(c1)CNC2)c1cc(Cl)cc(C2CC2)c1 ?
6.67

Quick one: pIC50 of NCc1cccc(NC(=O)[C@H](NC(=O)OCc2ccccc2)C(C2CCC2)C2CCC2)c1 ?
< 4.00

Quick one: pIC50 of C[C@@H](Oc1ccc(S(=O)(=O)Nc2ccc(Cl)cc2C(=O)O)cc1)c1ccccc1F ?
4.60

Quick one: pIC50 of N[C@@H](Cc1c[nH]cn1)C(=O)N1CCC2(CC1)OCCc1cc(O)ccc12 ?
< 4.00

Quick one: pIC50 of CO[C@H]1Cc2ccc(NC(=O)c3cc(C4CC4)n(C)c3C)cc2C1 ?
< 4.60

Quick one: pIC50 of NS(=O)(=O)c1cc(F)cc(C(=O)Nc2ccc3c(c2)CNC3)c1 ?
5.83

Quick one: pIC50 of NCc1cccc(NC(=O)[C@@H](NS(=O)(=O)c2ccccc2F)c2ccc(OCc3ccccc3)cc2)c1 ?
4.00

Quick one: pIC50 of N#C[C@H](Nc1ccc2c(c1)CNC2)c1cc(Cl)cc(C2CC2)c1 ?
6.76

Quick one: pIC50 of NCc1ccc(NC(=O)c2cc(Cl)cc3[nH]ncc23)cc1 ?
5.50

Quick one: pIC50 of NCc1nccc(NC(=O)c2cc(Cl)cc(NC(=O)OCc3ccccc3)c2)n1 ?
< 4.00
